- Study System: Peroxisome proliferator-activated receptor gamma (Homo sapiens)
- Measurement Protocol: compounds enhancing SRC-2 coactivator binding to PPARgamma – biochemical, HTS, primary screen (AID 1032);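 note: 0% = vehicle and 100% = reference agonist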
- Measurement Context: PPARgamma LBD-SRC-2 recruitment, at 8 µM
In all, about 200,000 compounds went through this assay and about 670 (0.34%) were called active. Cut-off read from the data, not from the text of the source: active = activation above about 22%; inactive = the rest. Many of the other results were omitted from the sample, so actives are more common in it than they were.
Select the matching outcome among active, inactive

I'd appreciate the recorded outcome for Cc1ccc2nc(-c3cccc(Br)c3)cc(C(=O)Nn3cnnc3)c2c1 from this test.
inactive

Could you kindly confirm the outcome this assay logged for Cc1scc(C(=O)NNC(=S)NCc2ccccc2)c1C ?
inactive

Status in this test for CCn1c(SCc2cc(=O)n3ccsc3n2)nc2ccccc21 ?
inactive

Recorded test call requested for Cc1n[nH]c(=O)nc1N/N=C/c1cccs1
inactive

What was the test verdict on COc1cc(SC#N)ccc1N=Cc1c(C)[nH]n(-c2ccc(C)cc2)c1=O ?
active

Query: recorded result category for CCc1ccc(NC(=O)C(C)OC(=O)/C=C/c2cccc([N+](=O)[O-])c2)cc1 (stereo not drawn) in this test
inactive

Per the assay record, what outcome was assigned to COc1ccc(NC(=O)CN(C)CC(=O)Nc2cccc(C(F)(F)F)c2)cc1 ?
inactive

Kindly provide the recorded test outcome for the following compound: COc1ccc(Cl)cc1C(=O)NCc1cn(C)nc1C
inactive

# fetch the recorded call for O=C(CN(C(=O)c1csnn1)c1cccc(F)c1)NCc1ccc(F)cc1 here
inactive

# fetch the recorded call for Cc1ccc(CNC(=O)CC2Sc3ccccc3NC2=O)cc1 (stereo not drawn) here
inactive

Answer briefly: the call reported for Cc1ccc(-c2cc(C(=O)NCc3cn(C)nc3C)c3cc(Br)ccc3n2)cc1 in this assay.
active

How did this test come out for CCOc1ccc(CCNC(=O)CSc2cc(=O)n(C)c3ccc(Cl)cc23)cc1OCC ?
inactive

Name the outcome recorded for CCn1c(=O)cc(SCC(=O)NCc2ccc3c(c2)OCO3)c2ccccc21 in the assay.
active

Test call, this compound: O=C(Nc1ccc(N2CCN(C(=O)C3CC3)CC2)cc1)c1cccs1
inactive

Answer briefly: the call reported for COc1cc2c(cc1O)C(SC)=NC(C)(C)C2 in this assay.
inactive

Entry Cc1ccc(C(=O)COC(=O)CCN2C(=O)C3C4CC(C(Br)C4Br)C3C2=O)cc1 (stereo not drawn) : call = ?
inactive

Outcome logged for CCOC(=O)N1CCN(C(=O)CSc2nc(C)nc3c2c(=O)n(C)c(=O)n3C)CC1 in this assay:
inactive

# fetch the recorded call for Cn1c(=O)cc(SCC(=O)N2CCCC2)c2cc(Cl)ccc21 here
active

Returns: the outcome recorded for CN(C)c1nccc(NCc2ccccc2)c1C#N in this assay.
inactive

Test call, this compound: CN1CCC(=NNC(=O)CN(c2cccc(Cl)c2)S(C)(=O)=O)CC1
inactive

Entry COc1cccc2c1OCC(CN1CCN(C3CCCCC3)C(CCO)C1)=C2 (stereo not drawn) : call = ?
inactive

Returns: the outcome recorded for COc1cc2c(cc1OC)C(C(C)C)=NC(C)(C)C2 in this assay.
inactive

Query: recorded result category for O=C(CSCc1ccc(Cl)cc1)N1CCCCC1 in this test
inactive

---

- Study System: Peroxisome proliferator-activated receptor gamma (Homo sapiens)
- Measurement Protocol: compounds enhancing SRC-2 coactivator binding to PPARgamma – biochemical, HTS, primary screen (AID 1032);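 note: 0% = vehicle and 100% = reference agonist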
- Measurement Context: PPARgamma LBD-SRC-2 recruitment, at 8 µM, active compounds read high
About 670 (0.34%) of roughly 200,000 compounds were called active. The sample holds actives, similar compounds and a random draw of the others, so the mix is not that of the screen.
Endpoint Name: activation (%)
Reply numerically in %, unit not repeated.

Given O=C(CSc1c2c(nc3ccc(Cl)cc13)CCCC2)NCc1ccco1 , state its recorded activation.
30.9

Entry under review: O=C(OCC1O[C@@H](OC(=O)c2cc(O)c(O)c(O)c2)[C@@H](OC(=O)c2cc(O)c(O)c(O)c2)[C@@H](OC(=O)c2cc(O)c(O)c(O)c2)[C@@H]1OC(=O)c1cc(O)c(O)c(O)c1)c1cc(O)c(O)c(O)c1 (stereo partly specified) . Reported activation?
27.6

Can you share its activation? I mean this molecule: Cc1ccc(S(=O)(=O)c2ccc(Cl)cc2)cc1S(=O)(=O)NC(C(=O)O)C(C)C (stereo unspecified)
-4.99

What value of activation has been reported for the following molecule? O=C(Oc1cccc(O)c1)C1CCCCC1
1.13

Suppose we examine the molecule COCCNC(=O)Cn1cc(C(=O)c2cccs2)c2ccccc21 ; what activation value has been reported?
-7.11

Reported activation, molecule O=C(Cn1cc(C(=O)c2cccs2)c2ccccc21)NCc1cccs1 : ____
-4.53

Given CCOC(=O)N1CCN(c2cc(C)c([N+](=O)[O-])cc2F)CC1 , state its recorded activation.
-3.32

Looking for the measured activation of CC(=O)NC1C(OCc2ccccc2)OC(COC(C)=O)C(OC(C)=O)C1OC(C)=O (stereo unspecified) , can you help?
4.63

// query activation value for entry NS(=O)(=O)c1ccc(CCNC(=S)Nc2ccc(S(N)(=O)=O)cc2)cc1
4.85

Look up activation for this molecule: COC(=O)Cn1cc(C(=O)c2cccs2)c2ccccc21
25.2

State the recorded activation for this entry: CC1=CC=CN2C1=NC(=O)CC2(C)C(=O)N(CC(=O)NC1CCCC1)c1ccccc1C (stereo unspecified)
1.53

---

- Study System: Peroxisome proliferator-activated receptor gamma (Homo sapiens) (UniProt P37231)
- Sequence (P37231 whole entry, looked up): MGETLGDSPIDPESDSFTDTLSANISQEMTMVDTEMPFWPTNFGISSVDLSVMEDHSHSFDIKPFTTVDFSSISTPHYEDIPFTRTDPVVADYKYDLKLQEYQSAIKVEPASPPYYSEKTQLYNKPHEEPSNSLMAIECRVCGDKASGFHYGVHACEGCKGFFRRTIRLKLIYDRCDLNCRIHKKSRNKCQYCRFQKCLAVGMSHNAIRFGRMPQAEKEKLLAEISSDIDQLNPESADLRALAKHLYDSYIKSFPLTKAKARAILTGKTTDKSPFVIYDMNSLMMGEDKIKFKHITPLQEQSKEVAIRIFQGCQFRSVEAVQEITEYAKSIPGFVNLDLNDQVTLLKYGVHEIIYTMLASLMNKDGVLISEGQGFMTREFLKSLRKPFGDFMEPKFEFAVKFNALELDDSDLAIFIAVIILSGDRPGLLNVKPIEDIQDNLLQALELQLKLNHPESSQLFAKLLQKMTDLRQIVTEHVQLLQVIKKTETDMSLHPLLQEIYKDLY
- Measurement Protocol: compounds enhancing SRC-2 coactivator binding to PPARgamma – biochemical, HTS, primary screen (AID 1032);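 note: 0% = vehicle and 100% = reference agonist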
- Measurement Context: PPARgamma LBD-SRC-2 recruitment, at 8 µM, active compounds read high
Out of some 200,000 compounds screened, about 670 (0.34%) were called active. The full list was thinned out, with actives kept by preference.
For each entry below, report its activation value.
Quick note: give the figure in %, leave out the unit.

Requested read-out: activation. Entry: CC(=O)Nc1ccc(S(=O)(=O)NC(C)C(=O)OCC(=O)NC2CCCC2)cc1 (stereo unspecified)
-3.44

// query activation value for entry CCOC(=O)C1CCN(C(=O)CSc2cc(=O)n(C)c3ccccc23)CC1
56.4

# query: activation of entry N#Cc1c(N)nc2c(c1N)CC(C(F)(F)F)O2 (stereo unspecified)
2.19

Given CC(=O)c1ccc(-n2nnnc2SCC(=O)N2CCN(C(=O)c3ccco3)CC2)cc1 , state its recorded activation.
-5.53

# input molecule: Cn1c(=O)cc(SCC(=O)N2CCN(C(=O)c3ccco3)CC2)c2ccccc21 ; wanted: its activation
40.5

Name the recorded activation for CCc1c(-c2ccccc2)nc(N)c(C#N)c1-c1cccs1 .
23.2

For the molecule CCOC(=O)N1CCC(NC(=O)COc2cc(=O)n(C)c3ccccc23)CC1 , what activation is on record?
-4.54

Which activation value is on record for COCCn1c(SCC(=O)Nc2ccc3c(c2)CCC3)nc2ccccc2c1=O ?
-3.24

Query (molecule): Cc1c(-c2ccccc2)nc(N)c(C#N)c1-c1cccs1 ; field requested: activation
6.63

I am curious: what activation value has been reported for CSc1nc(N)c(C#N)c(-c2ccccc2Cl)c1C#N ?
-6.37

Could you tell me which activation is on file for CCn1cc(CNC(=O)c2cc([N+](=O)[O-])c(C)c([N+](=O)[O-])c2)cn1 ?
-6.4

---

- Study System: Peroxisome proliferator-activated receptor gamma (Homo sapiens)
- Measurement Protocol: compounds enhancing SRC-2 coactivator binding to PPARgamma – biochemical, HTS, primary screen (AID 1032);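 note: 0% = vehicle and 100% = reference agonist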
- Measurement Context: PPARgamma LBD-SRC-2 recruitment, at 8 µM
The whole screen tested about 200,000 compounds, of which about 670 (0.34%) were called active. Cut-off read from the data, not from the text of the source: active = activation above about 22%; inactive = the rest. The full list was thinned out, with actives kept by preference.
One label from this list, please: active, inactive

Can you look up the reported call for CN(C)c1ccnc(Oc2ccc(F)cc2)c1C#N for me?
inactive

Which outcome was entered for the compound CSc1ccccc1C(=O)NCc1ccccc1 in this test?
inactive

Please let me know the test result on file for O=C(Nc1ccc(Cl)cc1)C1c2cccc[n+]2CC(=O)N1Cc1ccc2c(c1)OCO2 (centres undefined) .
inactive

Can you look up the reported call for CN1CCN(S(=O)(=O)c2ccc(NC(=S)NC(=O)C3CC3)cc2)CC1 for me?
inactive

Hey, what did the test say about O=C(N/N=C/c1ccc2c(c1)OCO2)C(=O)N1CCCC1 ?
inactive

Name the outcome recorded for COc1cccc(NC(=O)C(Sc2nc3ccccc3c(=O)n2CC(C)C)c2ccccc2)c1 (centres undefined) in the assay.
inactive

Hi, sorry to bother you, what did the test record for CCC(=O)OCCNc1nc(-c2ccccc2)nc2ccccc12 ?
inactive

Tell me the assay call for COc1ccc2c(Cl)c(-c3nnco3)sc2c1 please.
active

// param item: O=C(NCc1nnc(SCC(=O)N2CCC(Cc3ccccc3)CC2)o1)c1ccco1 ; yields the recorded call
inactive

Name the outcome recorded for COC(=O)c1[nH]c2ccccc2c1NC(=O)CN1CCCc2ccccc21 in the assay.
inactive

Lab log entry: CC(=O)n1c(C=Nc2ccccc2)c(O)c2ccccc21 — outcome as called in the assay?
inactive

GET /call?item= CC(=O)c1sc2nc(SCC(=O)N3CCCCC3)[nH]c(=O)c2c1C returns the recorded outcome of this test.
active

// param item: COc1ccc(NC(=S)NC2CCS(=O)(=O)C2)cc1 (centres undefined) ; yields the recorded call
inactive

Tell me the recorded outcome of this test for Cc1cccc(NC(=O)Cn2c(=O)n(Cc3ccccc3)c(=O)c3c(C)c(C)sc32)c1 .
inactive

Dear all, I need the recorded test outcome for COCCNC(=O)c1ccc(N2CCC3(CC2)OCCO3)c([N+](=O)[O-])c1 , thank you.
inactive

Which outcome was assigned to Cc1cccc2cc(CN(Cc3cccs3)C(c3nnnn3C3CCCC3)C(C)C)c(=O)[nH]c12 (centres undefined) in this test?
inactive

// return assay outcome for COc1cc(C2C(C(=O)c3ccc(C)o3)=C(O)C(=O)N2Cc2cccnc2)ccc1O (centres undefined)
inactive

Hi team, can someone confirm the assay call for Cc1cccn2c(CN(C)C3CCCc4ccccc43)c(C(=O)N3CCOCC3)nc12 (centres undefined) ?
inactive

Given CC(=O)Nc1ccc(Nc2c([N+](=O)[O-])cc(S(C)(=O)=O)cc2[N+](=O)[O-])cc1 , state the outcome it received in this test.
inactive

Lab log entry: N#Cc1ccc(-c2ccc(F)cc2)nc1Sc1ccccc1 — outcome as called in the assay?
inactive

Write down the call the test reported for this compound. Item: CC(=O)NC(Cc1ccc(F)c(F)c1)C(=O)NC1CCN(C(=O)c2ccc(C)cc2)CC1 (centres undefined)
inactive

Recorded call for CN(C)c1ccc(N/C=C/C(=O)C(F)(F)F)cc1 ?
active

Could you please tell me the result logged for CS(=O)(=O)N1CCc2cc(C(=O)Nc3ccccc3)ccc21 in this assay?
inactive

# fetch the recorded call for O=C(NCc1ccco1)c1cc(-c2cccnc2)nc2ccc(Cl)cc12 here
inactive

Test call for this compound, please: CCCOc1ccc(C2C(C(=O)c3ccc(C)o3)=C(O)C(=O)N2CCCn2ccnc2)cc1 (centres undefined)
active

// param item: Cc1cc(C)nc(NC(=O)c2cccc([N+](=O)[O-])c2)c1 ; yields the recorded call
inactive

Per the assay record, what outcome was assigned to COc1cc(C2C(C(=O)c3ccc(C)o3)=C(O)C(=O)N2CCc2ccccc2)ccc1O (centres undefined) ?
inactive

// return assay outcome for CCC(c1nnnn1C1CCCC1)N(Cc1cccs1)Cc1cc2cccc(C)c2[nH]c1=O (centres undefined)
inactive

Outcome logged for O=c1oc(/C=C/c2ccccc2)nc2ccccc12 in this assay:
inactive

Recorded test call requested for COc1cccc(/C=C2\SC(=N)N(c3ccc(F)cc3)C2=O)c1
inactive

Given COC(=O)c1[nH]c2ccc(Br)cc2c1NC(=O)Oc1ccccc1 , state the outcome it received in this test.
active

Outcome? Cc1cccc(C(=O)OCC(=O)NCC(C)C)c1O
inactive

# fetch the recorded call for COc1ccc2c(Cl)c(C(=O)NCc3ccco3)sc2c1 here
inactive

What is the recorded call for this compound in the test? COc1ccc(C(=O)NCc2nnc(SCCOc3ccccc3)n2C)cc1
inactive

Could you please tell me the result logged for COc1ccc(C(=O)Nc2ccc3nc(N4CCCCC4)cc(C)c3c2)cc1OC in this assay?
inactive

Per the records of this test, what outcome belongs to CCOC(=O)N1CCC(=NNC(N)=O)CC1 ?
inactive

Record request — test call for O=C(CSc1nc2c(cnn2-c2ccc(F)cc2)c(=O)[nH]1)N1CCCCCC1
inactive

Write down the call the test reported for this compound. Item: O=C(Cc1ccc(Br)cc1)N1CCN(c2ccccn2)CC1
inactive

Called result for COc1ccc(O[C@H]2C=C[C@@H](c3ccccc3)O[C@@H]2CO/N=C/C[C@@H]2C=C[C@H](OC(C)=O)[C@@H](COC(C)=O)O2)cc1
inactive

Please let me know the test result on file for COc1ccc(-c2nnco2)cc1OC .
inactive

GET /call?item= c1ccc2sc(NN=C3CCCC3)nc2c1 returns the recorded outcome of this test.
inactive

Outcome logged for CCc1cccc(OC2OC(CO)C(O)C(O)C2NC(C)=O)c1 (centres undefined) in this assay:
inactive

Recorded call for Cc1ccc(S(=O)(=O)NC(C(=O)N2CCOCCOCCOCCOCC2)c2ccccc2)cc1 (centres undefined) ?
inactive

Hey, what did the test say about N#Cc1ccc(-c2ccc(Cl)cc2)nc1Oc1ccc(F)cc1 ?
active
